- testTarget: KATP channels (Homo sapiens)
- Construct: TE671 human medulloblastoma cells were obtained from ATCC
- Sequence (O60706 1-1549 isoform O60706-2): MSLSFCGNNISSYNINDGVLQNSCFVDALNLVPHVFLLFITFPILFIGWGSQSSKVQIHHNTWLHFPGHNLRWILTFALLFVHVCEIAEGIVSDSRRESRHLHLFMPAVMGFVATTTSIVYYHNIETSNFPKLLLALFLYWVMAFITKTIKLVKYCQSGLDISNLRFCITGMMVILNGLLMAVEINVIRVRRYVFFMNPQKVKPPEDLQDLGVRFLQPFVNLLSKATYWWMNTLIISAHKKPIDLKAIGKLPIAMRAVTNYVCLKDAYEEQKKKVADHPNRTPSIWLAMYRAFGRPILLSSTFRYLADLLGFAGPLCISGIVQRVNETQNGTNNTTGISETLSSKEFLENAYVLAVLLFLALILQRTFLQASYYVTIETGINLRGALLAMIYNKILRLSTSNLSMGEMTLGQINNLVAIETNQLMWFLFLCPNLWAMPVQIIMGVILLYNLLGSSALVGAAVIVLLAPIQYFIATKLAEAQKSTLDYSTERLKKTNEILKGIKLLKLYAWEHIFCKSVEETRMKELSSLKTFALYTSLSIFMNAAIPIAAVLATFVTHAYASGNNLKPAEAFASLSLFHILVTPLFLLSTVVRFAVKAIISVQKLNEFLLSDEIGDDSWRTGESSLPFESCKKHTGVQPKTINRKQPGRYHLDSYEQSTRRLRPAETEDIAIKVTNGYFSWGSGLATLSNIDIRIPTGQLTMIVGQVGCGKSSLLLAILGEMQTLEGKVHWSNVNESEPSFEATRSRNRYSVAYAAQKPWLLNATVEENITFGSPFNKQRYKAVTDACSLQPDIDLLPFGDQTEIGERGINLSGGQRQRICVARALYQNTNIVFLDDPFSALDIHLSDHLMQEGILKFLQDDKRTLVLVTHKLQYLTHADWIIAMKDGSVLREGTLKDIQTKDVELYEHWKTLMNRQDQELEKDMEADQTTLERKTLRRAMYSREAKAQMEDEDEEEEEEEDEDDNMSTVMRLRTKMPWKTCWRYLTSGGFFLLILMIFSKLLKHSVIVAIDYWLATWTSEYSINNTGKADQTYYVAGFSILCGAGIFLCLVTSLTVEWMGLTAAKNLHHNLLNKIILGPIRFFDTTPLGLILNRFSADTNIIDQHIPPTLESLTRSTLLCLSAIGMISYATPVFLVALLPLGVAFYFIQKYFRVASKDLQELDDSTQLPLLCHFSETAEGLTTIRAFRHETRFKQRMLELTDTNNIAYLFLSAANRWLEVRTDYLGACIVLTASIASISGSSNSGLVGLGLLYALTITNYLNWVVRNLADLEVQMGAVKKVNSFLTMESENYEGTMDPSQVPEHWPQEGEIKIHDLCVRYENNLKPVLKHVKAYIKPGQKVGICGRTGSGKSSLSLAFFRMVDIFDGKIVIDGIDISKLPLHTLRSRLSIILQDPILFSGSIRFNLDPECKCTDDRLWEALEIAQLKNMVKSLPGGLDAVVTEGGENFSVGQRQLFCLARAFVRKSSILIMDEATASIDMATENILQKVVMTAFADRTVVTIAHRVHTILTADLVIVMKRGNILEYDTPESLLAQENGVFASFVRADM
- Sequence (Q14654 whole entry partner): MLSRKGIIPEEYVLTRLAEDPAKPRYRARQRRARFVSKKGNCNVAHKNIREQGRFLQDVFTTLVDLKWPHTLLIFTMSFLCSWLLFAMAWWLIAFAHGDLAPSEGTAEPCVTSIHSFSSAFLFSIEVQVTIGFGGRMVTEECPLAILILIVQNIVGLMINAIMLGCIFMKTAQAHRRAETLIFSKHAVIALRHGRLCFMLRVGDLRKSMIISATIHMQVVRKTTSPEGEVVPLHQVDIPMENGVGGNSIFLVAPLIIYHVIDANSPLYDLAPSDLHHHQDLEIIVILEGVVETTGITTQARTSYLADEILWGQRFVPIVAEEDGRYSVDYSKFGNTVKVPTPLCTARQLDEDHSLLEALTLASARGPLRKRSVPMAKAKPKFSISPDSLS
- assayNotes: Potassium Channel Assay (FLIPR membrane potential, KATP channel opening)
- testSettings: TE671 human medulloblastoma cells, Membrane Potential Assay Dye, room temperature
measuredParameter: EC50 (µM)

A. CC(O)c1cnccc1-c1cccc(C#N)c1 (stereo not drawn)
B. COc1ccc(C(O)c2cnccc2C(=O)c2ccccc2)cc1F (stereo not drawn)
C. CC(O)c1cnccc1C(=O)c1ccccc1 (stereo not drawn)
D. CC(C)C(O)c1cnccc1Br (stereo not drawn)
Hey, quick one: sort these by EC50, largest value first please. Write the labels out in the order the request specifies.
C, A, B, D

1. Cc1ccccc1C(O)c1cnccc1-c1cccc(C#N)c1 (stereo not drawn)
2. N#Cc1cccc(C2OCc3cnccc32)c1 (stereo not drawn)
Lower EC50: 1 or 2 ? // output: label of the selected item
2
